Data provenance: patent US20240116985A1

tested on: full-length beta-Catenin (Uniprot ID P35222) (Homo sapiens, UniProt P35222)
Construct: 10 nM full-length beta-Catenin (Uniprot ID P35222)
Sequence (P35222 1-781): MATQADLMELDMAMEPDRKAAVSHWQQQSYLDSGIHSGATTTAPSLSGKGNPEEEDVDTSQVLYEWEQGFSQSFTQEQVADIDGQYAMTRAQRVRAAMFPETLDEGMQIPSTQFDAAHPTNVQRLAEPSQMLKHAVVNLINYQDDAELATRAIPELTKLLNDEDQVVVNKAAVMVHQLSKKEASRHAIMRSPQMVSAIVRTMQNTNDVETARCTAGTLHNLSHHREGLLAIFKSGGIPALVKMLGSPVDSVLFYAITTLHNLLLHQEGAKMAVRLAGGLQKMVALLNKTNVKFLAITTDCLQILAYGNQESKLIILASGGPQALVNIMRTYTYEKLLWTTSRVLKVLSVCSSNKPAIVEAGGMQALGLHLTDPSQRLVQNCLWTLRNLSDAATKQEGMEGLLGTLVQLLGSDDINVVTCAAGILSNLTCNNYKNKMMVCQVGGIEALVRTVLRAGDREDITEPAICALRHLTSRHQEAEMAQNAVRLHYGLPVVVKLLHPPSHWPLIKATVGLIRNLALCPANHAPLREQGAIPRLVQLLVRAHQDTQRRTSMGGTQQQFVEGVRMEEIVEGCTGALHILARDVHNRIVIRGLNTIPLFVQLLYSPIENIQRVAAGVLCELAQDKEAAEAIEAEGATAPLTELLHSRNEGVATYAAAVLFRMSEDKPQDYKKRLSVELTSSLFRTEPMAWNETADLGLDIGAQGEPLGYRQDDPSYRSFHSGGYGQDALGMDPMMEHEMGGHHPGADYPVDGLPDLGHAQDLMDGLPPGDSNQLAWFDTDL
assay comment: Fluorescence polarization IC50 (beta-catenin / 5FAM-TCF4 10-53 competition)
Format: binding
test settings: fluorescence polarization; read-out: beta-Catenin FP IC50
Listing of recorded pIC50 by entry.
Give only the number. pIC50 is defined as minus log10 of concentration in molar units.

Worked set:
Tell me measured pIC50 for CC(=O)N1CCC[C@]12CC=CCCCC1(CCCC=CCCCCCC[C@@](C)(C(=O)N[C@@H](Cc3ccsc3)C(=O)N[C@@H](Cc3csc4ccccc34)C(=O)N[C@@H](Cc3c[nH]nn3)C(N)=O)NC(=O)[C@H](CC(C)C)NC(=O)[C@H](Cc3ccccc3)NC(=O)[C@H](C)NC(=O)[C@H](C)NC(=O)[C@H](CC(=O)O)NC(=O)[C@H](CC(=O)O)NC1=O)NC(=O)[C@H](CC(C)(C)C)NC(=O)[C@H](CC(=O)O)NC2=O (some centres unmarked) please. 7.11

Note down pIC50 recorded for CC(=O)N1CCC[C@]12CC=CCCCC1(CCCC=CCCCCCC[C@@](C)(C(=O)N[C@@H](Cc3ccccc3)C(=O)N[C@@H](Cc3csc4ccccc34)C(=O)N[C@@H](CCC(N)=O)C(N)=O)NC(=O)[C@H](CC(N)=O)NC(=O)[C@H](Cc3ccccc3)NC(=O)[C@H](C)NC(=O)[C@H](C)NC(=O)[C@H](CC(=O)O)NC(=O)[C@H](CC(=O)O)NC1=O)NC(=O)[C@H](CC(C)C)NC(=O)[C@H](CC(=O)O)NC2=O (some centres unmarked) [I-563] 7.72

Respond only with pIC50 recorded for CC(=O)N1CCC[C@]12CC=CCCCC1(CCCC=CCCCOC(=O)N3CC[C@@](C(=O)N[C@@H](Cc4ccsc4)C(=O)N[C@@H](Cc4csc5ccccc45)C(=O)N[C@@H](CCCNC(=N)N)C(N)=O)(C3)NC(=O)[C@H](CC(N)=O)NC(=O)[C@H](Cc3ccccc3)NC(=O)[C@H](C)NC(=O)[C@H](C)NC(=O)[C@H]([C@@H](C)O)NC(=O)[C@H](CC(N)=O)NC1=O)NC(=O)[C@H](CC(C)(C)C)NC(=O)[C@H](CC(=O)O)NC2=O (some centres unmarked) 6.33

Please look at this compound and report its pIC50: CC(=O)N1CCC[C@]12CC=CCCCC1(CCCC=CCCCOC(=O)N3CC[C@@](C(=O)N[C@@H](Cc4ccccc4C(F)(F)F)C(=O)N[C@@H](Cc4csc5ccccc45)C(=O)N[C@@H](CO)C(N)=O)(C3)NC(=O)[C@H](Cc3ccccc3)NC(=O)[C@H](Cc3ccccc3)NC(=O)[C@H](C)NC(=O)[C@H](C)NC(=O)[C@H](Cc3ccccc3C(=O)O)NC(=O)[C@H](CC(=O)O)NC1=O)NC(=O)[C@H](CC(C)(C)C)NC(=O)[C@H](CC(=O)O)NC2=O (some centres unmarked) 6.97

Next item in the queue.
Please list pIC50 recorded for the compound CC(=O)N1CCC[C@]12CC=CCCCC1(CCCC=CCCCOC(=O)N3CC[C@@](C(=O)N[C@@H](Cc4ccccc4Cl)C(=O)N[C@@H](Cc4csc5ccccc45)C(=O)N[C@H](CO)CC(C)C)(C3)NC(=O)[C@H](CC(C)C)NC(=O)[C@H](Cc3ccccc3)NC(=O)[C@H](C)NC(=O)[C@H](C)NC(=O)[C@H](CC(=O)O)NC(=O)[C@H](CC(=O)O)NC1=O)NC(=O)[C@H](CC(C)(C)C)NC(=O)[C@H](CC(=O)O)NC2=O (some centres unmarked) 5.71

----------
tested on: full-length beta-Catenin (Uniprot ID P35222) (Homo sapiens, UniProt P35222)
Construct: 10 nM full-length beta-Catenin (Uniprot ID P35222)
assay comment: Fluorescence polarization IC50 (beta-catenin / 5FAM-TCF4 10-53 competition)
Format: binding
test settings: fluorescence polarization; read-out: beta-Catenin FP IC50
Measured IC50 of individual entries
The reply should contain only the number, in µM.

Sample records with IC50:
Using known records, supply IC50 for CC(=O)N1CCC[C@]12CC=CCCCC1(CCCC=CCCCOC(=O)N3CC[C@@](C(=O)N[C@@H](Cc4cccc(C(N)=O)c4)C(=O)N[C@@H](Cc4csc5ccccc45)C(=O)N[C@@H](CCO)C(N)=O)(C3)NC(=O)[C@H](CC(C)C)NC(=O)[C@H](Cc3ccccc3)NC(=O)[C@H](C)NC(=O)[C@H](CCCCNC(C)C)NC(=O)[C@H](CCC(N)=O)NC(=O)[C@H](CC(=O)O)NC1=O)NC(=O)[C@H](CC1CCCCC1)NC(=O)[C@H](CC(N)=O)NC2=O (stereo partly drawn) 1.59

For the compound CC(=O)N1CCC[C@]12CC=CCCCC1(CCCC=CCCCOC(=O)N3CC[C@@](C(=O)N[C@@H](Cc4ccsc4)C(=O)N[C@@H](Cc4csc5ccccc45)C(=O)N[C@@H](CCC(N)=O)C(N)=O)(C3)NC(=O)[C@H](CC(C)C)NC(=O)[C@H](Cc3ccccc3)NC(=O)[C@H](C)NC(=O)[C@H](CC(=O)N3CCN(C)CC3)NC(=O)[C@H](CC(=O)O)NC(=O)[C@H](CC(=O)O)NC1=O)NC(=O)[C@H](CC(C)(C)C)NC(=O)[C@H](CC(=O)O)NC2=O (stereo partly drawn) , give its measured IC50 value. 0.03

Lab note: next compound to report on.
Assign IC50 to the following record: CC(=O)N1CCC[C@]12CC=CCCCC1(CCCC=CCOC(=O)N3CC[C@@](C(=O)N[C@@H](Cc4ccsc4)C(=O)N[C@@H](Cc4csc5ccccc45)C(=O)N[C@@H](CCC(N)=O)C(N)=O)(C3)NC(=O)[C@H](CC(N)=O)NC(=O)[C@H](Cc3ccccc3)NC(=O)[C@H](C)NC(=O)[C@H](C)NC(=O)[C@H](CC(=O)O)NC(=O)[C@H](CC(=O)O)NC1=O)NC(=O)[C@H](CC(C)(C)C)NC(=O)[C@H](CC(=O)O)NC2=O (stereo partly drawn) [I-1817] 0.182

----------
Reported chromatographic logD values are given for each entry in this list.
assay comment: CHI Log D procedure
Type: physicochemical
test settings: pH 7.4, CHI Log D
No unit in the answer, only the number.

Example entries and their recorded answers appear below.
Give the reported chromatographic logD for this compound. CC(=O)N1CCC[C@]12CC=CCCCC1(CCCC=CCCCOC(=O)N3CC[C@@](C(=O)N[C@@H](Cc4ccccc4F)C(=O)N[C@@H](Cc4csc5ccccc45)C(=O)N[C@@H](CO)C(N)=O)(C3)NC(=O)[C@H]([C@@H](C)O)NC(=O)[C@H](Cc3ccccc3)NC(=O)[C@H](C)NC(=O)[C@H](C)NC(=O)[C@H](CC(=O)O)NC(=O)[C@H](CC(=O)O)NC1=O)NC(=O)[C@H](CC(C)(C)C)NC(=O)[C@H](CC(=O)O)NC2=O (some centres unmarked) [I-1023] 2.17

Look up chromatographic logD of CC(=O)N1CCC[C@]12CC=CCCCC1(CCCC=CCCCCCC[C@@](C)(C(=O)N[C@@H](Cc3ccccc3)C(=O)N[C@@H](Cc3csc4ccccc34)C(=O)N[C@@H](CCC(N)=O)C(N)=O)NC(=O)[C@H]([C@@H](C)O)NC(=O)[C@H](Cc3ccccc3)NC(=O)[C@H](C)NC(=O)[C@H](C)NC(=O)[C@H](CC(=O)O)NC(=O)[C@H](CC(=O)O)NC1=O)NC(=O)[C@H](C)NC(=O)[C@H](CC(=O)O)NC2=O (some centres unmarked) [I-342] and report it. 2.07

Given the compound CC[C@H](C)[C@@H]1NC(=O)[C@H](CC(=O)O)NC(=O)[C@]2(CC=CCCCC3(CCCC=CCCCCCC[C@@](C)(C(=O)N[C@@H](Cc4ccccc4)C(=O)N[C@@H](Cc4csc5ccccc45)C(=O)N[C@@H](CCC(N)=O)C(N)=O)NC(=O)[C@H](CCC(N)=O)NC(=O)[C@H](CC(C)(C)C)NC(=O)[C@H](C)NC(=O)[C@H](C)NC(=O)[C@H](CCC(=O)O)NC(=O)[C@H](CC(=O)O)NC3=O)NC1=O)CCCN2C(C)=O (some centres unmarked) [I-727] , write its reported chromatographic logD. 2.41

// fetch chromatographic logD given entry CC(=O)N1CCC[C@]12CC=CCCCC1(CCCC=CCCCCCC[C@@](C)(C(=O)N[C@@H](Cc3cccc(F)c3)C(=O)N[C@@H](Cc3csc4ccccc34)C(N)=O)NC(=O)[C@H](CCC(N)=O)NC(=O)[C@H](Cc3ccsc3)NC(=O)[C@H](C)NC(=O)[C@H](C)NC(=O)[C@H](CCC(=O)O)NC(=O)[C@H](CC(=O)O)NC1=O)NC(=O)[C@H](C)NC(=O)[C@H](CC(=O)O)NC2=O (some centres unmarked) [I-431] 2.23

For the next question, use this compound.
Return reported chromatographic logD. Input compound: CC(=O)N1CCC[C@]12CC=CCCCC1(CCCC=CCCCCCC[C@@](C)(C(=O)N[C@@H](Cc3ccccc3)C(=O)N[C@@H](Cc3csc4ccccc34)C(=O)N[C@@H](CCC(N)=O)C(N)=O)NC(=O)[C@H](C(C)C)NC(=O)[C@H](Cc3ccccc3)NC(=O)[C@H](C)NC(=O)[C@H](C)NC(=O)[C@H](CC(=O)O)NC(=O)[C@H](CC(=O)NC3CCC3)NC1=O)NC(=O)[C@H](C)NC(=O)[C@H](CC(=O)O)NC2=O (some centres unmarked) [I-539] 2.94
